Here's a batch of compounds along with measured pIC50 for UniProt:P0DTD1.
pIC50: −log10 of the molar value.

Structure Smiles: Cc1ccc(N2CC3CCC(C2)N3)cc1C(=O)NC1(c2ccc(F)c3ccccc23)CC1
pIC50: 7.40
//
Structure Smiles: Cc1ccc(N2CC3CCC(C2)N3)cc1C(=O)NC1(c2cccc3cc(F)ccc23)CC1
pIC50: 7.08
//
Structure Smiles: Cc1ccc(N2CC3CCC(C2)N3C)cc1C(=O)NC1(c2cccc(-c3cccs3)c2)CC1
pIC50: 6.98
//
Structure Smiles: Cc1ccc(N2CC(N(C)C)C2)cc1C(=O)NC1(c2ccnc3c(Cl)cccc23)CC1
pIC50: 7.35
//
Structure Smiles: Cc1ccc(N2CC(N(C)C)C2)cc1C(=O)NC1(c2ccc(F)c3ccccc23)CC1
pIC50: 7.25
//
Structure Smiles: COc1ccc(C2(NC(=O)c3cc(N4CC(N(C)C)C4)ccc3C)CC2)c2cccnc12
pIC50: 7.80
//
Structure Smiles: Cc1ccc(N2CC(N(C)C)C2)cc1C(=O)NC1(c2ccnc3ccccc23)CC1
pIC50: 6.89
//
Structure Smiles: Cc1ccc(N2CC(N(C)C)C2)cc1C(=O)NC1(c2ccc(F)c3ncccc23)CC1
pIC50: 7.42
//
Structure Smiles: Cc1ccc(N2CC(N(C)C)C2)cc1C(=O)NC1(c2cccc3cc(F)ccc23)CC1
pIC50: 7.28
//
Structure Smiles: Cc1ccc(N2CC(N(C)C)C2)cc1C(=O)NC1(c2ccc(OC(F)(F)F)c3ncccc23)CC1
pIC50: 6.66
//
Structure Smiles: Cc1ccc(N2CC(N(C)C)C2)cc1C(=O)NC1(c2ccc(N(C)C)c3ccccc23)CC1
pIC50: 6.76
//
Structure Smiles: COc1ncc(C2(NC(=O)c3cc(N4CC(N(C)C)C4)ccc3C)CC2)c2ccccc12
pIC50: 6.66
//
Structure Smiles: Cc1ccc(N2CC(N(C)C)C2)cc1C(=O)NC1(c2ccc(OC(F)F)c3ncccc23)CC1
pIC50: 7.53
//
Structure Smiles: Cc1ccc(N2CCNCC2)cc1C(=O)NC1(c2ccc(F)c3ccccc23)CC1
pIC50: 7.01
//
Structure Smiles: Cc1ccc(N2CC(N(C)C)C2)cc1C(=O)NC1(c2cccc3cc(F)c(F)cc23)CC1
pIC50: 7.89
//
Structure Smiles: Cc1ccc2c(C3(NC(=O)c4cc(N5CC(N(C)C)C5)ccc4C)CC3)ccc(F)c2n1
pIC50: 6.93
//
Structure Smiles: Cc1ccc(N2CC(N(C)C)C2)cc1C(=O)NC1(c2ccc(OC(F)F)c3ccccc23)CC1
pIC50: 6.74
//
Structure Smiles: Cc1ccc(N2CC(N(C)C)C2)cc1C(=O)NC1(c2ccc(C#N)c3ccccc23)CC1
pIC50: 7.39
